- assay-procedure: gradient 5% acetonitrile 3 min, to 50% in 2 min, to 85% in 15 min, held 3 min, 100 µL/min
- condition-set: column: Zorbax Extend-C18 2.1 x 50 mm; eluents: water / acetonitrile, 0.1% formic acid
Assign a class from recorded RP-LC retention time; defined classes: bin 1 (below 700 s), bin 2 (700 s to below 800 s), bin 3 (800 s or more)

COc1ccc(CC(=O)Nc2nnc(SCc3nnc(-c4ccccc4)o3)s2)cc1 ... bin 3

Q: Category lookup for the molecule CCCCS(=O)(=O)c1cc2c(cc1NC(=O)Cc1ccc(Cl)cc1)n(C)c(=O)n2C
Ans: bin 3

Q: Category lookup for the molecule CCCCNC(=O)c1c(O)c2cccnc2n(-c2cccc(OC)c2)c1=O
Ans: bin 3

Q: Category lookup for the molecule COc1ccc(-c2nnc(-c3cccnc3NCCCN3CCCC3=O)o2)cc1
Ans: bin 2

====

- assay-procedure: gradient 5% acetonitrile 3 min, to 50% in 2 min, to 85% in 15 min, held 3 min, 100 µL/min
- condition-set: column: Zorbax Extend-C18 2.1 x 50 mm; eluents: water / acetonitrile, 0.1% formic acid
RP-LC retention time values, listed per item
Only the number, expressed in s, is required.

CC(C)n1c(=O)c2ccccc2n(Cc2nc(-c3ccc4c(c3)OCO4)no2)c1=O ... 1080
Cc1cc2nn(CC(=O)NCC3CCCO3)c(=O)n2c(Nc2ccc(F)cc2)n1 (centres undefined) ... 722

Q: Which measured RP-LC retention time value corresponds to COc1cc(N2C=C(C#N)S(=O)(=O)c3ccc(C)cc32)cc(OC)c1OC ?
Ans: 887

Q: Which measured RP-LC retention time value corresponds to O=C(Cc1cccs1)N1CCN(c2ccc(=O)n(-c3cccc(Cl)c3)n2)CC1 ?
Ans: 822

Q: Which measured RP-LC retention time value corresponds to O=C(Nc1nnc(SCc2ccccn2)s1)C1CC(=O)N(c2ccc(F)cc2)C1 (centres undefined) ?
Ans: 617

Q: Which measured RP-LC retention time value corresponds to COc1ccc(S(=O)(=O)NC2CCN(C(=O)c3ccnn3C)CC2)cc1 ?
Ans: 658

Q: Which measured RP-LC retention time value corresponds to Cc1nn(C)c2nc(OC(C)C(=O)NCc3ccc(Cl)cc3)cc(C(F)(F)F)c12 (centres undefined) ?
Ans: 1020

Q: Which measured RP-LC retention time value corresponds to CCn1ccc2cc(S(=O)(=O)N3CCCC(C(=O)NCCN4CCCCC4)C3)ccc21 (centres undefined) ?
Ans: 668

Q: Which measured RP-LC retention time value corresponds to Cc1cc(C(=O)NCCCN2CCOCC2)nc2cc(-c3ccccn3)nn12 ?
Ans: 630

====

- assay-procedure: gradient 5% acetonitrile 3 min, to 50% in 2 min, to 85% in 15 min, held 3 min, 100 µL/min
- condition-set: column: Zorbax Extend-C18 2.1 x 50 mm; eluents: water / acetonitrile, 0.1% formic acid
Define the label as True when RP-LC retention time is strictly less than 700 s and as False in all remaining cases.

Answered examples (6):
Cc1ccc(CNS(=O)(=O)c2cc3n(c2)CCCNC3=O)cc1C ... False
CC(C)NC(=O)c1ccc2c(c1)nc(CN1CCN(C(=O)NC3CCCCC3)CC1)n2C ... True
Cc1cc2oc3c(c(=O)c2cc1C)C(c1ccccc1F)N(c1nccs1)C3=O (centres undefined) ... False
CCc1ccc(NC(=O)Cn2cnc3c(sc4nc(-c5ccccc5)ccc43)c2=O)cc1 ... False
Cc1cc(=O)n2c(-c3ccc(NC(=O)C(C)Oc4ccc5c(c4)OCO5)cc3)csc2n1 (centres undefined) ... False
Cn1cc(CCN2CCN(S(=O)(=O)c3ccccc3F)CC2)c2cccnc21 ... True

Q: Bench note: check whether O=c1c(NC2CCCCC2)nc2ccncc2n1Cc1ccccc1 shows RP-LC retention time below 700 s
Ans: False

Q: Bench note: check whether CCN(CC)S(=O)(=O)c1ccc(-n2cnc(C(=O)NCc3ccc(OC)c(OC)c3)c2)cc1 shows RP-LC retention time below 700 s
Ans: False
